Biological target: human GLUT3 (Homo sapiens, UniProt P11169)
Construct: expressed in transfected cells
Sequence (P11169 whole entry): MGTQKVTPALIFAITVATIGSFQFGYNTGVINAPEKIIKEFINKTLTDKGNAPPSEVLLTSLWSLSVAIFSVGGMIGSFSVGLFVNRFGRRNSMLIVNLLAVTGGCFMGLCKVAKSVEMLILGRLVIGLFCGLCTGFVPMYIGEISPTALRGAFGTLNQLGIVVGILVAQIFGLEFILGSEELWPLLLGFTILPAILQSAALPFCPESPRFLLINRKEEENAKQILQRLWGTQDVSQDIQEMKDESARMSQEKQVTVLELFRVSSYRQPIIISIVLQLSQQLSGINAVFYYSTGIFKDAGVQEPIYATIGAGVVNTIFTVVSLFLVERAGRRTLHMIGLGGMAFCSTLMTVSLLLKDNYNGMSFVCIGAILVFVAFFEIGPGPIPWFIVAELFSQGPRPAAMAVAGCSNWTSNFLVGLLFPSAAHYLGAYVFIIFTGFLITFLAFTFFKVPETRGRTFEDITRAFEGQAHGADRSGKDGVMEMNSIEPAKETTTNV
Experiment: [3H]-deoxy-D-glucose uptake assay, GLUT3
Type: cell-based
Conditions: [3H]-deoxy-D-glucose uptake in HEK293 cells stably expressing human GLUT3
RECORDED_METRIC: GLUT3 pIC50

- SMILES: "Clc1ccc(-c2nc3ccc(-c4ccccc4Cl)cn3c2CN2CCOCC2)cc1"
  RESULT: "+++ (pIC50 ≧ 6.00)"
- SMILES: "CN(c1ccc2nc(-c3ccc(Cl)cc3Cl)c(CN3CCn4ncnc4C3)n2c1)S(C)(=O)=O"
  RESULT: "+++ (pIC50 ≧ 6.00)"
- SMILES: "Cc1c(-c2ccccc2)ccc2nc(-c3ccc(Cl)cc3)c(CN3CCOCC3)n12"
  RESULT: "+++ (pIC50 ≧ 6.00)"
- SMILES: "Fc1cccc(F)c1-c1ccc2nc(-c3ccc(Cl)cc3)c(CN3CCOCC3)n2c1"
  RESULT: "+++ (pIC50 ≧ 6.00)"

----------
Target: human GLUT1 (Homo sapiens)
Construct: expressed in transfected cells
Experiment: [3H]-deoxy-D-glucose uptake assay, GLUT1
Type: cell-based
Settings: [3H]-deoxy-D-glucose uptake in HEK293 cells stably expressing human GLUT1
RECORDED_METRIC: GLUT1 pIC50

- SMILES: "O=C(Nc1cccc(F)c1)N1CCN(Cc2c(-c3ccc(Cl)cc3)nc3ccc(-c4ccccc4)cn23)CC1"
  GLUT1 pIC50: "+− (pIC50 < 4.00)"
- SMILES: "O=C(c1ccc(F)cc1)N1CCN(Cc2c(-c3ccc(Cl)cc3)nc3cnc(-c4ccccc4)cn23)CC1"
  GLUT1 pIC50: "+++ (pIC50 ≧ 6.00)"
- SMILES: "Cc1cn2c(CN3CCOCC3)c(-c3ccc(Cl)cc3)nc2cn1"
  GLUT1 pIC50: "+− (pIC50 < 4.00)"
- SMILES: "O=C(c1c(-c2ccc(Cl)cc2)nc2ccc(-c3ccccc3)cn12)N1CCNCC1"
  GLUT1 pIC50: "+− (pIC50 < 4.00)"
- SMILES: "O=C(C1CCC1)N1CCN(Cc2c(-c3ccc(Cl)cc3)nc3ccc(-c4ccccc4Cl)cn23)CC1"
  GLUT1 pIC50: "+++ (pIC50 ≧ 6.00)"

Exam item: Could you share which GLUT1 pIC50 value was measured for `COc1ccc(C(=O)N2CCN(Cc3c(-c4ccc(OC)cc4)nc4ccc(-c5ccccc5)cn34)CC2)cc1` ?
Marked response: +++ (pIC50 ≧ 6.00)

Exam item: Another compound to check: `O=C(C1CCCC1)N1CCN(Cc2c(-c3ccc([N+](=O)[O-])cc3)nc3ccc(-c4ccccc4)cn23)CC1`
Marked response: +++ (pIC50 ≧ 6.00)

----------
Molecular target: human GLUT1 (Homo sapiens, UniProt P11166)
Construct: expressed in transfected cells
Sequence (P11166 1-492): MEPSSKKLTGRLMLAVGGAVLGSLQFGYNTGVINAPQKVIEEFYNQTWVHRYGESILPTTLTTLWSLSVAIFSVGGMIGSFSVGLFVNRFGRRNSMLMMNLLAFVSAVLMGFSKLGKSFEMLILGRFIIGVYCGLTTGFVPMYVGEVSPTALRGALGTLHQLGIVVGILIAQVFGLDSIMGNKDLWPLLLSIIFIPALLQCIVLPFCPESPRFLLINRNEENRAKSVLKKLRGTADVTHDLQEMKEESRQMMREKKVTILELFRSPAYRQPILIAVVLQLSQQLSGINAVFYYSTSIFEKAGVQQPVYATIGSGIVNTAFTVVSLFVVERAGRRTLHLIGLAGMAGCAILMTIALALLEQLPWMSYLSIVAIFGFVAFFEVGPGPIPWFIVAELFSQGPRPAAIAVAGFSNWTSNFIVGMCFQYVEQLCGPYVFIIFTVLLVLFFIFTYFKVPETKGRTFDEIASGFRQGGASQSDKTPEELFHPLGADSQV
Experiment: [3H]-deoxy-D-glucose uptake assay, GLUT1
Format: cell-based
Settings: [3H]-deoxy-D-glucose uptake in HEK293 cells stably expressing human GLUT1
RECORDED_METRIC: GLUT1 pIC50

Some compounds with known GLUT1 pIC50 results, for comparison:
- COMPOUND: "Fc1cncc(F)c1-c1ccc2nc(-c3ccc(Cl)cc3)c(CN3CCOCC3)n2c1 [Compound 328]"
  GLUT1 pIC50: "++ (pIC50 5.00-5.99)"
- COMPOUND: "CC(=O)N1CCN(Cc2c(-c3ccc(Cl)cc3)nc3ccc(S(=O)(=O)N4CCCC4)cn23)CC1 [Compound 383]"
  GLUT1 pIC50: "+++ (pIC50 ≧ 6.00)"
- COMPOUND: "CC(=O)N1CCN(Cc2c(-c3ccc(Cl)cc3Cl)nc3ccc(NS(C)(=O)=O)cn23)CC1 [Compound 313]"
  GLUT1 pIC50: "+++ (pIC50 ≧ 6.00)"
- COMPOUND: "CN(c1ccc2nc(-c3ccc(Cl)cc3Cl)c(CN3CCN4C(=O)CCC4C3)n2c1)S(C)(=O)=O (stereo not shown) [Compound 374]"
  GLUT1 pIC50: "+++ (pIC50 ≧ 6.00)"
- COMPOUND: "CCNS(=O)(=O)c1ccc2nc(-c3ccc(Cl)cc3)c(CN3CCN(C(C)=O)CC3)n2c1 [Compound 384]"
  GLUT1 pIC50: "+++ (pIC50 ≧ 6.00)"

Now look at this entry.
Exam item: Could you share which GLUT1 pIC50 value was measured for CN(c1ccc2nc(-c3ccc(Cl)cc3Cl)c(CN3CCN(C(=O)C4COC4)CC3)n2c1)S(C)(=O)=O [Compound 335] ?
Marked response: +++ (pIC50 ≧ 6.00)

----------
Molecular target: human GLUT1 (Homo sapiens)
Construct: expressed in transfected cells
Sequence (P11166 1-492): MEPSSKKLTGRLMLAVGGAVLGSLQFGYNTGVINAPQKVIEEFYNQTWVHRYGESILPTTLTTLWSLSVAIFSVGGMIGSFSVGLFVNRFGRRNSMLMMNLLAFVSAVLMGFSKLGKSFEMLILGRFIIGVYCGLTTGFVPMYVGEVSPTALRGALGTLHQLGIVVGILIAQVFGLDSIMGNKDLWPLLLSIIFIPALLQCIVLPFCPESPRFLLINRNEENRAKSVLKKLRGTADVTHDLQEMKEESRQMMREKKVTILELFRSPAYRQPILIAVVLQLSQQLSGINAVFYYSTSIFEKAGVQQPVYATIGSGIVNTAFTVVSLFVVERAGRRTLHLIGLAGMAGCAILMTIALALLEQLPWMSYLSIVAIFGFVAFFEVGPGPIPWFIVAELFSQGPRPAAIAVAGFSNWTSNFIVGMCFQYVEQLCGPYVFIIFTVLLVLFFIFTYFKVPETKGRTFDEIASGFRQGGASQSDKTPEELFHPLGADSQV
Experiment: [3H]-deoxy-D-glucose uptake assay, GLUT1
Assay type: cell-based
Conditions: [3H]-deoxy-D-glucose uptake in HEK293 cells stably expressing human GLUT1
RECORDED_METRIC: GLUT1 pIC50

Some compounds with known GLUT1 pIC50 results, for comparison:
- SMILES: "COCC(=O)N1CCN(Cc2c(-c3ccc(Cl)cc3)nc3ccc(-c4ncon4)cn23)CC1"
  RESULT: "+++ (pIC50 ≧ 6.00)"
- SMILES: "CC(=O)N1CCCN(Cc2c(-c3ccc(Cl)cc3)nc3ccc(-c4ccccc4)cn23)CC1"
  RESULT: "+++ (pIC50 ≧ 6.00)"
- SMILES: "CS(=O)(=O)Nc1ccc2nc(-c3ccc(Cl)cc3Cl)c(CN3CCn4ncnc4C3)n2c1"
  RESULT: "+++ (pIC50 ≧ 6.00)"
- SMILES: "Clc1ccc(-c2nc3ccc(-c4cccnc4)cn3c2CN2CCOCC2)cc1"
  RESULT: "++ (pIC50 5.00-5.99)"
- SMILES: "O=C(C1COC1)N1CCN(Cc2c(-c3ccc(Cl)cc3)nc3ccc(-c4ccccc4)cn23)CC1"
  RESULT: "+++ (pIC50 ≧ 6.00)"

Exam item: Could you share which GLUT1 pIC50 value was measured for `CC(C)(C)CC(=O)N1CCN(Cc2c(-c3cccc([N+](=O)[O-])c3)nc3ccc(-c4ccccc4)cn23)CC1` ?
Marked response: + (pIC50 4.00-4.99)

Exam item: Another compound to check: `O=C(C1CCCC1)N1CCN(Cc2c(-c3cccc([N+](=O)[O-])c3)nc3ccc(-c4ccccc4)cn23)CC1`
Marked response: ++ (pIC50 5.00-5.99)

Exam item: Another compound to check: `Cc1ccc(-c2nc3ccc(-c4ccccc4)cn3c2CN2CCN(C(=O)c3ccc(F)cc3)CC2)cc1`
Marked response: +++ (pIC50 ≧ 6.00)

Exam item: Another compound to check: `O=C(c1ccc(=O)[nH]c1)N1CCN(Cc2c(-c3ccc(Cl)cc3)nc3ccc(-c4ccccc4)cn23)CC1`
Marked response: +++ (pIC50 ≧ 6.00)

Exam item: Another compound to check: `O=C(c1ccco1)N1CCN(Cc2c(-c3cccc([N+](=O)[O-])c3)nc3ccc(-c4ccccc4)cn23)CC1`
Marked response: ++ (pIC50 5.00-5.99)
